The following molecules are listed with their measured pIC50 values.
- measured.on: acyl-CoA:cholesterol acyltransferase (ACAT) (Oryctolagus cuniculus, UniProt G1SFD9)
- Construct: tissue preparation containing rabbit intestinal microsomes; from tissue; host or cells: rabbit intestinal microsomes
- Sequence (G1SFD9 1-524): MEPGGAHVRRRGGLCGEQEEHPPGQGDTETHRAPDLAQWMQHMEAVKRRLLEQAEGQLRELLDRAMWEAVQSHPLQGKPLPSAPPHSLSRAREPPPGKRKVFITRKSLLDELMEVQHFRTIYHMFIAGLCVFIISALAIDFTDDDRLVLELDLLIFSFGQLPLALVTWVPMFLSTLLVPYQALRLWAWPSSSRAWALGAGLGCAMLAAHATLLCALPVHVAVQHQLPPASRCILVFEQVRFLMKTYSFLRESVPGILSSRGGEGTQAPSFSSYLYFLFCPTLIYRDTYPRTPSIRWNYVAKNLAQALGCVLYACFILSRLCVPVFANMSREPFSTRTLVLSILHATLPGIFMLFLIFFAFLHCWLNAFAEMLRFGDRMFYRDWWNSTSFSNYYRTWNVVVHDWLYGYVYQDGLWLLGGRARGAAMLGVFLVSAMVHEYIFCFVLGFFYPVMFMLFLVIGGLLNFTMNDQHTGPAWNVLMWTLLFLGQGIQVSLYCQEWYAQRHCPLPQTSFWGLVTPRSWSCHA
- procedure.text: In vitro inhibition of ACAT: formation of radiolabeled cholesterol oleate from radiolabeled oleic acid in rabbit intestinal microsomes
- Assay type: biochemical
- test.settings: rabbit intestinal microsomes; read-out: IC50 (concentration of test compound required to inhibit cholesteryl oleate formation to 50% of control)
The value called pIC50 is obtained by taking minus log10 of the concentration in mol/L.

Study these solved cases before continuing.
CCCCCCCCCCCCOP(=O)(CC(=O)Nc1c(C(C)C)cccc1C(C)C)c1ccccc1 (racemic) [Example 12] ... 7.54
CCCCCCC(C)OP(=O)(CC(=O)Nc1c(C(C)C)cccc1C(C)C)c1ccccc1 (racemic) [Example 11] ... 7.46
CCCCCCCCCOP(=O)(c1ccccc1)N(CC(=O)Nc1c(C(C)C)cccc1C(C)C)Cc1ccccc1 (racemic) [Example 31] ... 7.64
CC(C)c1cccc(C(C)C)c1NC(=O)CP(=O)(c1ccccc1)c1ccccc1 [Example 2] ... 5.64

Now let's try a different one.
Quote pIC50 reported for CC(C)c1cccc(C(C)C)c1NC(=O)CP(=O)(OCc1ccccc1)OCc1ccccc1 [Example 36] please.
7.14

---

Listed below: IC50 values for each entry.
- measured.on: acyl-CoA:cholesterol acyltransferase (ACAT) (Oryctolagus cuniculus)
- Construct: tissue preparation containing rabbit intestinal microsomes; from tissue; host or cells: rabbit intestinal microsomes
- procedure.text: In vitro inhibition of ACAT: formation of radiolabeled cholesterol oleate from radiolabeled oleic acid in rabbit intestinal microsomes
- Type: biochemical
Respond with the bare value in nM.

Solved entries:
CCCCCCCCCCCCC(C)OP(=O)(Oc1ccccc1)N(CC(=O)Nc1c(C(C)C)cccc1C(C)C)Cc1ccccc1 (racemic) [Example 35] ... 160
CCCCCCCCCOP(=O)(OCC)N(CC(=O)Nc1c(C(C)C)cccc1C(C)C)Cc1ccccc1 (racemic) [Example 32] ... 14
CCCCCCCCCCC1CN(Cc2ccccc2)P(=O)(OCC(=O)Nc2c(C(C)C)cccc2C(C)C)O1 (racemic) [Example 30] ... 33

Identify measured IC50 corresponding to CCCCCCCCCOP(=O)(Oc1ccccc1)N(CC(=O)Nc1c(C(C)C)cccc1C(C)C)Cc1ccccc1 (racemic) [Example 34]
23
